I'd be grateful if you could share measured pIC50 for these entries.
target: PDE7B (Homo sapiens (Human), UniProt Q9NP56); test: PDE7 phosphodiesterase scintillation proximity assay (SPA), PDE7B; type: biochemical
Sequence (Q9NP56 107-450 limits assumed): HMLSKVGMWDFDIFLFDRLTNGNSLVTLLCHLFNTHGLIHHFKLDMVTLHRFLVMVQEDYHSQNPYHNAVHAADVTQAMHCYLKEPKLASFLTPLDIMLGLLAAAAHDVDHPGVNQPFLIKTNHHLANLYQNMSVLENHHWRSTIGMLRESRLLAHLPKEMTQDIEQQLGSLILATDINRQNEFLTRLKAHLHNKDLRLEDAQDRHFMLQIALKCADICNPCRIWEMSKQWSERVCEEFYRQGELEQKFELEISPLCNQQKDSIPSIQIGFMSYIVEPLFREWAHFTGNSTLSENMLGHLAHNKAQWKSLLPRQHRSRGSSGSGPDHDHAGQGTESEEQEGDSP
Scale explanation: pIC50 corresponds to minus log10 of a concentration expressed in moles per litre.

Enquiry: Answer with reported pIC50 of COc1cc(N)ccc1-c1cc2c(c(=O)[nH]1)C(C1CCCCC1)N=[N+]2C (centres unmarked) [OM69]
Return: 8.32

Enquiry: Give the measured pIC50 for O=C1Nc2c(Cl)ccc(OCCO)c2C2(CCCCC2)N1 [OM955]
Return: 6.97

----------
target: PDE7B (Homo sapiens (Human), UniProt Q9NP56); experiment: PDE7 phosphodiesterase scintillation proximity assay (SPA), PDE7B; format: biochemical
ASSAY_METRIC: potency of PDE7B inhibition, in words

COMPOUND	MEASUREMENT
CC(=O)Nc1ccc(-c2nn(C)/c(=N/C3CCCCC3)s2)cc1 [OM956]	moderate potency
O=C1Nc2c(Cl)ccc(OCCO)c2C2(CCCCC2)N1 [OM955]	moderate potency
COc1cc(N)ccc1-c1cc2c(c(=O)[nH]1)C(C1CCCCC1)N=[N+]2C (stereo not shown) [OM69]	high potency
COc1cc(N)ccc1-c1nc2c(C)nn(C3CCCCC3)c2c(=O)[nH]1 [OM056]	high potency

----------
biological target: PDE7A (Homo sapiens (Human)); experiment: initial PDE7A inhibition assay, different assay methodology; type: biochemical; details: read-out: PDE7A IC50 in the initial assay work
Sequence (Q13946 whole entry, species assumed): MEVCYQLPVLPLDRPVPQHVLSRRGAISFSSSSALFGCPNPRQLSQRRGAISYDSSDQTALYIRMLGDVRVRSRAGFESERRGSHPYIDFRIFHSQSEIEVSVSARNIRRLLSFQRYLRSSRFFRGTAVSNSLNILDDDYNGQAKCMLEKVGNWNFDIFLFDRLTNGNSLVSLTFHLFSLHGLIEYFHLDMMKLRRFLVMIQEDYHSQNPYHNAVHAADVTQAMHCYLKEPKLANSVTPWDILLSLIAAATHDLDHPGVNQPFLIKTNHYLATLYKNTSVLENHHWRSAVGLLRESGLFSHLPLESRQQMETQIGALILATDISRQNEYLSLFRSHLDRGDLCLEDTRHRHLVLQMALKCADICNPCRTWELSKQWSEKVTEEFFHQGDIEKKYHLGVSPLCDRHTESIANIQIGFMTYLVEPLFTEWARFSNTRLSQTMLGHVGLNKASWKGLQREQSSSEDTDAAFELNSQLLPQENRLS
ASSAY_METRIC: IC50 (nM)
Give just the numeric value; nM need not be written.

Enquiry: Assign IC50 to the following record: COc1cc(N)ccc1-c1cc2c(c(=O)[nH]1)C(C1CCCCC1)N=[N+]2C (stereo not shown) [OM69]
Return: 3.5

----------
target: PDE7A (Homo sapiens (Human)); assay: PDE7 phosphodiesterase scintillation proximity assay (SPA), PDE7A; type: biochemical
Sequence (Q13946 whole entry, looked up): as the sequence (Q13946 whole entry, species assumed) above

COMPOUND	potency of PDE7A inhibition, in words
O=C1Nc2c(Cl)ccc(OCCO)c2C2(CCCCC2)N1	moderate potency
COc1cc(N)ccc1-c1nc2c(C)nn(C3CCCCC3)c2c(=O)[nH]1	high potency
COc1cc(N)ccc1-c1cc2c(c(=O)[nH]1)C(C1CCCCC1)N=[N+]2C (stereo not shown)	high potency
CC(=O)Nc1ccc(-c2nn(C)/c(=N/C3CCCCC3)s2)cc1	moderate potency

----------
molecular target: UniProt Q9NP56; experiment: initial PDE7B inhibition assay, different assay methodology; assay type: biochemical; details: reliability questioned
Sequence (Q9NP56 whole entry, species assumed): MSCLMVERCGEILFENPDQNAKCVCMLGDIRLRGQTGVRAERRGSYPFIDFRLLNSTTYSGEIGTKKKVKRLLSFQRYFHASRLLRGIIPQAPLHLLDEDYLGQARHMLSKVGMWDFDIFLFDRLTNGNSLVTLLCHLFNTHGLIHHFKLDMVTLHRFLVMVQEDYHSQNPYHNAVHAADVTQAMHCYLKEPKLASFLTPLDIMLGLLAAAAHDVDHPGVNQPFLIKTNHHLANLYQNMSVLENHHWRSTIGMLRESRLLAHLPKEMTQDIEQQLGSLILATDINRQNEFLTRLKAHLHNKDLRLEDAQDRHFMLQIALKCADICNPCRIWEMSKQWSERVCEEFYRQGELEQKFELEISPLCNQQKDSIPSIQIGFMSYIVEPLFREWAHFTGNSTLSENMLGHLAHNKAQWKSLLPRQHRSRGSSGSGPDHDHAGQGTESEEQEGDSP
ASSAY_METRIC: IC50 (nM)
# number only, unit nM dropped from output

Enquiry: Let me know recorded IC50 for COc1cc(N)ccc1-c1cc2c(c(=O)[nH]1)C(C1CCCCC1)N=[N+]2C (stereo not shown) [OM69] , thanks.
Return: 96.9

----------
target: PDE7A (Homo sapiens (Human)); assay: PDE7 phosphodiesterase scintillation proximity assay (SPA), PDE7A; type: biochemical
ASSAY_METRIC: IC50 (nM)
Write down the numeric answer in nM and omit the unit.

Enquiry: // Input: COc1cc(N)ccc1-c1cc2c(c(=O)[nH]1)C(C1CCCCC1)N=[N+]2C (centres unmarked) [OM69] . Output its IC50 only.
Return: 1.3

Enquiry: Read the entry O=C1Nc2c(Cl)ccc(OCCO)c2C2(CCCCC2)N1 [OM955] and write its reported IC50.
Return: 51.8

----------
target: UniProt:Q9NP56; experiment: PDE7 phosphodiesterase scintillation proximity assay (SPA), PDE7B; assay type: biochemical; conditions: unit inferred
ASSAY_METRIC: IC50 (nM)
Lab book: enter the figure in nM, no units written.

Enquiry: Please list IC50 recorded for the compound COc1cc(N)ccc1-c1nc2c(C)nn(C3CCCCC3)c2c(=O)[nH]1 [OM056]
Return: 9.27
